Assayed System: human P2X3 receptor (Homo sapiens (Human), UniProt P56373)
Sequence (P56373 whole entry): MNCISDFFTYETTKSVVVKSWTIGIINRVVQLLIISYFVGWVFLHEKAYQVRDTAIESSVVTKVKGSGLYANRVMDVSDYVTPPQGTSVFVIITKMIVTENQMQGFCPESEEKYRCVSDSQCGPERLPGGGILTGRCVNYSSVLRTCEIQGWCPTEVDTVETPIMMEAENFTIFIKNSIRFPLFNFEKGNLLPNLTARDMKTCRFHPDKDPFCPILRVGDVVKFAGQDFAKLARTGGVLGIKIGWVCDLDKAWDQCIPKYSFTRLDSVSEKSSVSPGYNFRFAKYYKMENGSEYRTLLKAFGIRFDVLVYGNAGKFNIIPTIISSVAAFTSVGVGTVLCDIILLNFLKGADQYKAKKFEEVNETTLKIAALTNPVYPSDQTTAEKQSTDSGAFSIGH
Assay Details: P2X3 receptor inhibition, ATP-evoked Fluo-3 calcium fluorescence (FDSS 3000)
Condition Description: C6BU-1 cell transfected with human P2X3 receptor gene; ATP-evoked Fluo-3 fluorescence
Observation Type: log10 of IC50 (log10 of the value in nM)
All values: log10 IC50 [nM].

For this compound ( COCCOc1ncccc1C1C(C(=O)CC(C)(C)C)=C(O)C(=O)N1c1ccc(-c2ccsc2)cc1 (centres unmarked) ), measured log10 of IC50 is 2.10

For this compound ( CC(C)c1n[nH]c2c1C(c1ccccc1OC(CO)CO)N(c1ccc(-c3ccsc3)cc1)C2=O (centres unmarked) ), measured log10 of IC50 is 0.70

For this compound ( COc1ccc(C(=O)C2=C(O)C(=O)N(c3nc4ccc(OC)cc4s3)C2C2CCCCC2)cc1 (centres unmarked) ), measured log10 of IC50 is 1.15

For this compound ( COc1ccccc1C1c2c(C(C)(C)C)n[nH]c2C(=O)N1c1ccc(OC(C)C)cc1 (centres unmarked) ), measured log10 of IC50 is 2.34

For this compound ( CNC(=O)c1ccccc1C1c2c(C(C)C)n[nH]c2C(=O)N1c1ccc(-c2ccsc2)cc1 (centres unmarked) ), measured log10 of IC50 is 0.30

For this compound ( COc1cc(F)ccc1C1C(C(=O)C(C)C)=C(O)C(=O)N1c1ccc(-c2ccsc2)cc1 (centres unmarked) ), measured log10 of IC50 is 1.26

For this compound ( COc1ccc(-c2n[nH]c3c2C(c2ccccc2OCCO)N(c2nc4cc(OC)ccc4s2)C3=O)cc1 (centres unmarked) ), measured log10 of IC50 is 2.54

For this compound ( CCCCC(CCCC)C1C(C(=O)c2ccc(CO)cc2)=C(O)C(=O)N1c1ccc(-c2ccon2)cc1 (centres unmarked) ), measured log10 of IC50 is 2.00

###

Assayed System: UniProt:P56373
Assay Details: P2X3 receptor inhibition, ATP-evoked Fluo-3 calcium fluorescence (FDSS 3000)
Condition Description: C6BU-1 cell transfected with human P2X3 receptor gene; ATP-evoked Fluo-3 fluorescence
Observation Type: IC50

For this compound ( COCc1ccccc1C1C(C(=O)C(C)C)=C(O)C(=O)N1c1ccc2c(c1)cc(C)n2C (stereo not shown) ), measured IC50 is 0.21 µM

For this compound ( Cc1cc(-c2ccc(N3C(=O)C(O)=C(C(=O)CC(C)C)C3c3ccccc3C(=O)N(C)C)cc2)cs1 (stereo not shown) ), measured IC50 is 0.071 µM

For this compound ( COCOc1ccccc1C1C(C(=O)C(C)C)=C(O)C(=O)N1c1ccc(-c2ccsc2)cc1 (stereo not shown) ), measured IC50 is 0.006 µM

For this compound ( COc1ccccc1C1c2c(C(C)(C)CO)n[nH]c2C(=O)N1c1ccc(-c2cc[nH]c2)cc1 (stereo not shown) ), measured IC50 is 0.016 µM

For this compound ( COc1ccccc1C1c2c(C(C)(C)C)n[nH]c2C(=O)N1c1ccc(-c2ccoc2)cn1 (stereo not shown) ), measured IC50 is 0.033 µM

For this compound ( COc1ccccc1C1C(C(=O)C2CC2)=C(O)C(=O)N1c1ccc(-c2ccsc2)cc1 (stereo not shown) ), measured IC50 is 0.073 µM

For this compound ( COc1ncccc1C1c2c(C(C)(C)C)n[nH]c2C(=O)N1c1ccc(-c2noc(C)n2)cc1 (stereo not shown) ), measured IC50 is 0.392 µM

For this compound ( COCc1ccccc1C1C(C(=O)C(C)C)=C(O)C(=O)N1c1ccc(I)cc1 (stereo not shown) ), measured IC50 is 0.637 µM

For this compound ( CC(C)C(=O)C1=C(O)C(=O)N(c2ccc(-c3cccs3)cc2)C1c1ccccc1OCCO (stereo not shown) ), measured IC50 is 0.012 µM

For this compound ( COC(=O)COc1ccccc1C1C(C(=O)C(C)(C)C)=C(O)C(=O)N1c1ccc(-c2cccs2)cc1 (stereo not shown) ), measured IC50 is 0.012 µM

For this compound ( COc1ccccc1C1c2c(C(C)(C)C)n[nH]c2C(=O)N1c1ccc(OC(F)(F)F)cc1 (stereo not shown) ), measured IC50 is 0.358 µM

For this compound ( COCCOc1ccccc1C1c2c(C(C)(C)C)n[nH]c2C(=O)N1c1ccc(SC)cc1 (stereo not shown) ), measured IC50 is 0.023 µM

For this compound ( CC(C)(C)c1n[nH]c2c1C(c1ccccc1OCCO)N(c1ccc(-c3cccs3)cc1)C2=O (stereo not shown) ), measured IC50 is 0.004 µM

For this compound ( CC(C)(C)C(=O)C1=C(O)C(=O)N(c2ccc(-c3ccon3)cc2)C1c1ccccc1OCC(=O)O (stereo not shown) ), measured IC50 is 0.776 µM

For this compound ( COc1ncccc1C1c2c(C(C)(C)C)n[nH]c2C(=O)N1c1ccc(-c2ccsc2)nc1 (stereo not shown) ), measured IC50 is 0.024 µM

For this compound ( Cc1nc(-c2ccc(N3C(=O)C(O)=C(C(=O)C(C)C)C3c3ccccc3CCC(=O)NC(C)C)cc2)no1 (stereo not shown) ), measured IC50 is 0.715 µM
